target: CSB wild-type (Homo sapiens, UniProt Q03468 1-1493); assay: EMSA
Sequence (Q03468 whole entry): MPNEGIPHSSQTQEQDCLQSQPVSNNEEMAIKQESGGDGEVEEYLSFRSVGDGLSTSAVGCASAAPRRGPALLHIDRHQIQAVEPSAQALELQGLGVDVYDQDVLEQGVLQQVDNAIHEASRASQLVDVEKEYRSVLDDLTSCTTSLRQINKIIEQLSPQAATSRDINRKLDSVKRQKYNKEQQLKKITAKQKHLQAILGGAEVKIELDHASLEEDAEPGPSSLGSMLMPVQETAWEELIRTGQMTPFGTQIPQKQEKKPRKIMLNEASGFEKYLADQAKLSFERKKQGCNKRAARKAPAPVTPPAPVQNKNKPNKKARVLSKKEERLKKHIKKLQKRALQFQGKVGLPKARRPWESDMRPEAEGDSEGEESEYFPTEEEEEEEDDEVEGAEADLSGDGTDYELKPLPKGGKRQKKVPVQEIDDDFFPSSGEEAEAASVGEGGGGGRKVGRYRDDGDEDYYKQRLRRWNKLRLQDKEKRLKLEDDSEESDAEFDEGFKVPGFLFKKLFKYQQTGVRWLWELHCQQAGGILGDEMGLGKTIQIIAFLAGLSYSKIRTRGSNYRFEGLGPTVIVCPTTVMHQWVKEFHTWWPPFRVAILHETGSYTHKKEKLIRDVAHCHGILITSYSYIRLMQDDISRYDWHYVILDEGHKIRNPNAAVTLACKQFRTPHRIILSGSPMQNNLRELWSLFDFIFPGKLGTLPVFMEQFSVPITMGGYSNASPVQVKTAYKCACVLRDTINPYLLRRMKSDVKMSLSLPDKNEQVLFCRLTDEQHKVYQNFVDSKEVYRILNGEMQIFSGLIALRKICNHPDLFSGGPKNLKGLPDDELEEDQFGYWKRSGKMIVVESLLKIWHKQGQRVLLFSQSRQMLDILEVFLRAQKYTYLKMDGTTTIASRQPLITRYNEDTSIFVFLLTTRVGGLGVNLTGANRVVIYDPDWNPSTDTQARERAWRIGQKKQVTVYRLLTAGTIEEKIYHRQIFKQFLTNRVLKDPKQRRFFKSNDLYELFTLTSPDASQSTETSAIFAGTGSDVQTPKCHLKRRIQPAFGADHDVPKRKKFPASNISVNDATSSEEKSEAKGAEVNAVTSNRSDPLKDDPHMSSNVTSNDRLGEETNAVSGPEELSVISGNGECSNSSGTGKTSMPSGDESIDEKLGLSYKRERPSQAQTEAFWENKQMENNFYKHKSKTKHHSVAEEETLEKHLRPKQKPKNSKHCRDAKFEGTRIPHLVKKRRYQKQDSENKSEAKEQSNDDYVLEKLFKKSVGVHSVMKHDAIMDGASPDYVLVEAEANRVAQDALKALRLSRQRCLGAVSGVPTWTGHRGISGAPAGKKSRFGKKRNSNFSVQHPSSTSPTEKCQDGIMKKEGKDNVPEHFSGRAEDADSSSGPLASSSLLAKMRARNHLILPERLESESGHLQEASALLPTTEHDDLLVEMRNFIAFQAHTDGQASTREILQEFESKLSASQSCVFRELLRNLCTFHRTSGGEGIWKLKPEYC
METRIC: Kd (nM)
Use nM as the unit, but write only the number.

Given the entry 34G/34C (dsDNA) DNA 1: GTACCCGGGGATCCGTACGGCGCATCAGCTGCAG DNA 2: CTGCAGCTGATGCGCCGTACGGATCCCCGGGTAC , report its measured Kd.
20.5
